Reference for the values: PubChem BioAssay (NCI)

system: HT29 colon; assay: NCI tumour cell line growth inhibition, 48 h
*1 amine or outer side, *2 acyl side, *3 side chain or, on linkers, in order; H or OH if unused. Where a SMILES comes first, the peptide text is derived from it. [ ]: non-standard residue; d: D form. The star is where a group is joined. X31 = CC(=O)N(C)SCC(N[*:1])C(=O)[*:2]; Fmoc = O=C(OCC1c2ccccc2-c2ccccc21)*; For = O=C*
Readings of TGI for the listed compounds
ASSAY_METRIC: TGI

COMPOUND | ASSAY_METRIC | MEAS_VALUE
CSc1nc(-c2ccc(Cl)cc2)c(C#N)c(=O)[nH]1 | TGI | > 100 µM
CC(=O)C1C(=O)C(=O)N(c2ccc(Br)cc2)C1=O (stereo unspecified) | TGI | > 100 µM
CCc1c2c(nc3ccc(OCc4ccc(B5OC(C)(C)C(C)(C)O5)cc4)cc13)-c1cc3c(c(=O)n1C2)COC(=O)[C@]3(O)CC | TGI | > 100 µM
O=C(O)C1CC2CC(=O)C1C2 (stereo unspecified) | TGI | > 100 µM
C/C([O-])=C(/c1nc(-c2ccc([N+](=O)[O-])o2)no1)[n+]1cc(C)ccc1C | TGI | 22.7 µM
COC1C(OC(N)=O)C(O)C(Oc2ccc3c(O)c(NC(=O)c4ccc(O)c(CC=C(C)C)c4)c(=O)oc3c2C)OC1(C)C (stereo unspecified) | TGI | > 100 µM
COc1cc2c(cc1OCCCCCn1c3ccccc3c3ccccc31)N=C[C@@H]1CCCN1C2=O | TGI | 5.29 µM
O=CN1N=C(c2ccc(Nc3ccnc4cc(Cl)ccc34)cc2)CC1c1ccc(Cl)cc1 (stereo unspecified) | TGI | 8.5 µM
COC(=O)[C@@H]1[C@H](O)CC[C@H]2[C@@]1(C)CC[C@@H](C)[C@]2(COC(C)=O)CC(=O)c1ccoc1 | TGI | > 50 µM
Cc1c(C(N)=O)sc2c1c(=O)n(Cc1ccccc1)c1nnc(S(=O)(=O)CC(=O)Nc3ccc(Cl)cc3)n21 | TGI | 26 µM
COc1cc(/C=C\c2ccc(Cl)cc2)cc(OC)c1OC | TGI | 10.2 µM
O=C1NN=C(c2ccc([N+](=O)[O-])cc2)C1n1nc(-c2ccccc2)c2ccccc2c1=O (stereo unspecified) | TGI | > 100 µM
CC(=O)O/N=C/c1cc2c(cc1Br)OCO2 | TGI | > 349 µM
NC(=O)N/N=C(\CCC(=O)N(Cc1ccccc1)Cc1ccccc1)CC(=O)c1ccc(F)cc1 | TGI | > 100 µM
COc1ccc2c(c1OC)C(=O)O[C@@H]2[C@H]1c2c(c(Br)c3c(c2OC)OCO3)CCN1C | TGI | > 100 µM
CCCN(CCC)C(=O)c1c(Cl)c2cccnc2n2c(C)cnc12 | TGI | > 100 µM
COC(=O)CNCC1OC2OC(C)(C)OC2C1N=[N+]=[N-] (stereo unspecified) | TGI | > 100 µM
Cc1ccccc1NC(=O)CSc1nnc(Cc2ccccc2)o1 | TGI | > 100 µM
CC1=C(C(=O)NC(C)(C)C)CC(C(=O)NC(C)(C)C)C(C)N1 (stereo unspecified) | TGI | > 100 µM
COc1cc(-c2oc3c(OC)c(O)cc(O)c3c(=O)c2OC)ccc1O | TGI | > 100 µM
O=C1Nc2ccc(Br)cc2/C1=C/C(=O)c1ccccc1 | TGI | 3.39 µM
CC(=O)N(C)SCC(NC(=O)C(Cc1ccccc1)NC(=O)OCC1c2ccccc2-c2ccccc21)C(=O)NC(Cc1ccccc1)C(=O)NC(Cc1cn(C=O)c2ccccc12)C(=O)NC(CCCCNC(=O)OCC1c2ccccc2-c2ccccc21)C(=O)NC(C(=O)NC(CSN(C)C(C)=O)C(=O)NC(C(N)=O)C(C)O)C(C)O (stereo unspecified) (Fmoc-F[X31]FW(For)K(Fmoc)T[X31]T-NH2; configuration not given here) | TGI | > 100 µM
Cc1ccc(N2C(=O)C(=O)N(/N=C3\C(=O)Nc4ccccc43)C2=S)cc1 | TGI | > 100 µM
C=CC[C@H]1[C@H](O[Si](C)(C)C(C)(C)C)C=CC(=O)[C@@H]1CC(=O)OCC | TGI | 21.2 µM
CCOC(=O)c1cn(CC)c2cc3c(cc2c1=O)SCS3 | TGI | > 100 µM
CCCC(CCC)C(=O)OCC1(CO)C/C(=C\c2ccc(C(F)(F)F)cc2)C(=O)O1 (stereo unspecified) | TGI | 30.6 µM
NCCCCCNOCCCN | TGI | > 100 µM
NNC(=S)N/N=C(/C(=O)Nc1ccc([N+](=O)[O-])cc1)c1nc2ccc([N+](=O)[O-])cc2[nH]c1=O | TGI | > 100 µM
CC(=O)C1=NN(c2ccccc2)C2(S1)SC(c1ccccc1)(c1ccccc1)c1ccccc12 (stereo unspecified) | TGI | > 100 µM
O=C1Cc2ccccc2CCc2ccsc21 | TGI | > 100 µM
CC1CC(=O)c2c(ccc3c2C(=O)c2cccc(O)c2C3=O)C1 (stereo unspecified) | TGI | 18.5 µM
